B1: human CHIP-TPR (residues 21-154) [human] / biotin-GSGSGP(pT)IEEVD [modified: biotin, printed before the first residue; phosphothreonine (pT; Thr636 in HSPA1A numbering); biotin, printed before the first residue; phosphothreonine (pT; … (parent complex)
chain 1: EKSPSAQELKEQGNRLFVGRKYPEAAACYGRAITRNPLVAVYYTNRALCYLKMQQHEQALADCRRALELDGQSVKAHFFLGQCQLEMESYDEAIANLQRAYSLAKEQRLNFGDDIPSALRIAKKKRWNSIEERR
chain 2: GSGSGPTIEEVD

# Variants of: B1
# ASSAY_SUMMARY: biolayer interferometry; read off a plot
ASSAY_METRIC: Kd

Request: Fill blank: measured Kd of the variant chain 1 EKSPSAQELKEQGNRLFVGRKYPEAAACYGRAITRNPLVAVYYTSRALCYLKMQQHEQALADCRRALELDGQSVKAHFFLGQCQLEMESYDEAIANLQRAYSLAKEQRLNFGDDIPSALRIAKKKRWNSIEERR [chain 1 N45S] is ____.
Result: ~6.6 µM

Request: Fill blank: measured Kd of the variant chain 1 EKSPSAQELKEQGNRLFVGRKYPEAAACYGRAITRNPLVAVYYTNRALCYLKMQQHEQALADCRRALELDGQSVKAHFFLGQCQLEMESYDEAIANLQRAYSLAKEQRLNFSDDIPSALRIAKKKRWNSIEERR [chain 1 G112S] is ____.
Result: ~1 µM

Data origin: paper PMC13090976
